# testProtocol: osmotic lysis modulators in infected erythrocytes, primary screen, PSAC antagonist project, cell-based, P. falciparum Indochina, OD700, 3 h (AID 1156)
# conditionSet: higher = more signal, called active from +8 up or from −8 down
Returns t if the recorded z-score is greater than or equal to 0.8, and f otherwise.

{"molecule": "O=C1[C@H]2[C@H]3[C@H](O)[C@H](O)CC(=NO[C@@H]4O[C@H](CO)[C@@H](O)[C@H](O)[C@H]4O)[C@H]3CC[C@H]2C(=O)N1C1CCCCC1", "assignedLabel": "f"}
{"molecule": "COC(=O)[C@@]1(Cc2ccc(F)cc2)[C@H]2c3cc(C(=O)N(C)C)n(Cc4ccc(OC)c(OC)c4)c3C[C@H]2CN1C(=O)c1ccccc1", "assignedLabel": "f"}
{"molecule": "CC(C)NC(=O)[C@@]1(C)c2ccccc2C(=O)N(Cc2cc(F)cc(C(F)(F)F)c2)[C@H]1c1ccc(CO)cc1", "assignedLabel": "t"}
{"molecule": "CO[C@H]1COC(=O)[C@@H]2CCCN2C(=O)CC=C[C@@H](C)[C@H](OC)COC(=O)CC=C[C@@H]1C", "assignedLabel": "f"}
{"molecule": "Cc1cc2c(c(=O)o1)[C@H](O)[C@H]1O[C@H]1C2=O", "assignedLabel": "f"}
{"molecule": "CC=CC1=C(CO)[C@H](O)[C@H]2O[C@H]2[C@H]1O", "assignedLabel": "f"}
{"molecule": "CC(=O)OC[C@H]1O[C@H](CCON=C(C)CCC(=O)OC[C@H]2O[C@H](C#Cc3ccccc3)C=C[C@@H]2Oc2ccc(C)cc2)C=C[C@@H]1OC(C)=O", "assignedLabel": "t"}
{"molecule": "CCN(CC)c1ccc(N2CC=CC34O[C@@H]5/C=C\\CCC(C)OC(=O)C5[C@H]3C(=O)N(CCCO)[C@@H]4C2=O)cc1 (stereo not given in full)", "assignedLabel": "f"}

###

# studySystem: Streptavidin (Streptomyces avidinii) (UniProt P22629)
# Sequence (P22629 whole entry, looked up): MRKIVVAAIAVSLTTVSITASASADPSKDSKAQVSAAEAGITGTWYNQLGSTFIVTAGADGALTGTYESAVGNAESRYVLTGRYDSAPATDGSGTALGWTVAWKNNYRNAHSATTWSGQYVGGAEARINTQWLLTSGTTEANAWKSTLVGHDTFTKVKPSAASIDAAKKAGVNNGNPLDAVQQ
# testProtocol: streptavidin binders on small-molecule microarray, primary screen, artefact control for SMM compound annotation, biophysical, 635/667 nm fluorescence (AID 1147);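 further: signal reflects streptavidin binding to arrayed compounds as a control protein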
# conditionSet: streptavidin binding, higher = more signal
Returns Fulfilled if the recorded composite z-score is greater than or equal to 0.2, and Not fulfilled otherwise.

{"compound": "Cc1ccc(C2CC=C(C(=O)O)CN2S(=O)(=O)c2ccc(C)cc2)cc1 (centres undefined)", "assignedLabel": "Not fulfilled"}
{"compound": "CC(CCC(=O)OC[C@H]1O[C@H](C#Cc2ccccc2)C=C[C@@H]1Oc1ccc(C)cc1)=NOC[C@@H](O)COCc1ccco1", "assignedLabel": "Not fulfilled"}
{"compound": "C=CCN1C(=O)[C@]2(O[C@H](CCn3cc(CCO)nn3)[C@@H]([Si](C)(C)c3ccc(OC)cc3)[C@@H]2C)c2cc(N3CCOC3=O)ccc21", "assignedLabel": "Fulfilled"}
{"compound": "CO[C@H]1O[C@H](CO)[C@@H](OC(=O)Nc2ccc3c(c2)OCO3)[C@H](OC(=O)Nc2ccccc2-c2ccccc2)[C@@H]1OC(=O)Nc1ccccc1-c1ccccc1", "assignedLabel": "Fulfilled"}
{"compound": "CC(=O)OC[C@H]1O[C@H](CCON=C(C)CCC(=O)OC[C@H]2O[C@H](C#Cc3ccccc3)C=C[C@@H]2Oc2ccc(C)cc2)C=C[C@@H]1OC(C)=O", "assignedLabel": "Fulfilled"}
{"compound": "CO[C@H]1O[C@H](CO)[C@@H](OC(=O)Nc2ccc(C#N)cc2)[C@H](OC(=O)c2cc3ccccc3[nH]2)[C@H]1OC(=O)c1cc2ccccc2[nH]1", "assignedLabel": "Fulfilled"}
{"compound": "CCN1C(=O)[C@H]2[C@H]3[C@H](O)[C@H](O)CC(=NOCc4ccccc4)[C@@H]3CC[C@H]2C1=O", "assignedLabel": "Not fulfilled"}
{"compound": "CCOC(=O)[C@H](Cc1ccccc1)NC(=O)CCC1CC(OC(=O)NCCc2ccc(F)cc2)CC2(CCCC(COC(=O)NCC(c3ccccc3)c3ccccc3)O2)O1 (some centres undefined)", "assignedLabel": "Fulfilled"}
{"compound": "COC(=O)C1=CCC(c2cccc(Cl)c2)O1 (centres undefined)", "assignedLabel": "Not fulfilled"}

###

# studySystem: Fibroblast growth factor 10 (Homo sapiens)
# testProtocol: FGF10 binders on small-molecule microarrays, primary screen, biochemical, small-molecule microarray, 635 nm fluorescence (AID 1102)
# conditionSet: FGF10 binding, fluorescence 635 nm, higher = more signal
composite z-score by entry:

{"compound": "CC(CCN1CCc2nc(-c3ccccc3)c(-c3ccccc3)cc2C1)=NO[C@H](C)c1cn([C@@H]2COC[C@H]2O)nn1", "composite z-score": 0.215}
{"compound": "CCc1cc2c(nc1CC)CCN(CCC(C)=NOC[C@@H](O)[C@H]1O[C@@H]3OC(C)(C)O[C@@H]3[C@H]1O)C2", "composite z-score": 0.123}
{"compound": "CCOC(=O)CCN1C(=O)[C@H]2[C@H]3[C@H](O)[C@H](O)CC(=NOC[C@@H](O)COCc4ccco4)[C@@H]3CC[C@H]2C1=O", "composite z-score": -0.133}
{"compound": "O=C1[C@H]2[C@H]3[C@H](O)[C@H](O)CC(=NOC[C@@H](O)COCc4ccco4)[C@H]3CC[C@H]2C(=O)N1Cc1ccc2c(c1)OCO2", "composite z-score": 0.11}
{"compound": "O=C1[C@H]2[C@H]3[C@H](O)[C@H](O)CC(=NOC[C@@H](O)COCc4ccco4)[C@@H]3CC[C@H]2C(=O)N1c1ccc(F)cc1F", "composite z-score": 0.579}
{"compound": "CN(C)C(=O)[C@@]1(Cc2ccccc2)N=C(c2ccc(OCCCO)cc2)O[C@H]1c1ccccc1CN=[N+]=[N-]", "composite z-score": 1.47}
{"compound": "COCCCNC(=O)[C@]1(CCC(=O)OC(C)(C)C)N=C(c2ccc(OCCCO)cc2)O[C@@H]1c1ccccc1N=[N+]=[N-]", "composite z-score": 1.29}
{"compound": "COC(=O)[C@@]1(Cc2ccc(F)cc2)[C@@H]2C(=CC(=O)[C@H]2CC(=O)C(=O)N(C)C)CN1C(=O)c1ccccc1", "composite z-score": 0.625}
{"compound": "O=C1[C@H]2[C@H]3[C@H](O)[C@H](O)CC(=NOCc4ccccc4)[C@H]3CC[C@H]2C(=O)N1c1cccc(Oc2ccccc2)c1", "composite z-score": 0.787}
{"compound": "CO[C@@H]1COC(=O)CC=C[C@@H](C)COC(=O)[C@H](COCc2ccccc2)NC(=O)CC=C[C@H]1C", "composite z-score": 0.285}
{"compound": "CCOC(=O)[C@H](CC(C)C)NC(=O)CCC1CC(OC(=O)NCc2cccc3ccccc23)CC2(CCCC(COC(=O)NCCN3CCOCC3)O2)O1 (stereo not given in full)", "composite z-score": 0.763}
{"compound": "CCc1cc2c(nc1CC)CCN(CCC(C)=NOC[C@@H](O)COCc1ccco1)C2", "composite z-score": 0.529}
{"compound": "C=CC[C@@H]1C=C[C@H](ON=Cc2ccc(C(=O)N3[C@H](c4ccc(C)cc4)[C@@H](C)CC[C@H]3C(=O)OC)cc2)[C@@H](CO)O1", "composite z-score": 0.59}
{"compound": "CO[C@H]([C@@H](C)[C@H](OC)c1ccccc1)[C@H](C)[C@@H](OC)[C@H](C)C(C)=O", "composite z-score": 0.173}
{"compound": "CO[C@H]1COC(=O)[C@@H]2CCCN2C(=O)CC=C[C@@H](C)[C@H](OC)COC(=O)CC=C[C@@H]1C", "composite z-score": 1.09}

###

composite z-score by entry:
# testProtocol: binders of probe aHhip on microarray, primary screen, stem cell growth factor project, biochemical, small-molecule microarray, fluorescence 635/667 (AID 1087);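 further: score merges spot fluorescence at 667nm with spot signal to noise ratio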
# conditionSet: higher = more signal
measure: composite z-score

{"compound": "O=C(NN=C1C[C@@H](O)[C@@H](O)[C@@H]2[C@@H]3C(=O)N(c4cccc(Oc5ccccc5)c4)C(=O)[C@@H]3CC[C@@H]12)OCc1ccccc1", "resultValue": 0.2}
{"compound": "CC(C)OC(=O)C=C1C[C@@H](c2ccc(C#N)cc2)O[C@@H](c2ccc(C#N)cc2)O1", "resultValue": 0.233}
{"compound": "CCN1C(=O)[C@H]2[C@H]3[C@H](O)[C@H](O)CC(=NOCc4ccccc4)[C@@H]3CC[C@H]2C1=O", "resultValue": -0.3}
{"compound": "C[C@H](c1ccccc1)N1C(=O)[C@H]2[C@@H]3C(=CC[C@H]2C1=O)C(=O)[C@H]1O[C@H]1[C@H]3O", "resultValue": -0.289}
{"compound": "N#Cc1ccc(NN2C(C(O)c3cc(C(F)(F)F)cc(C(F)(F)F)c3)C=CC3C(=O)N(c4ccccc4)C(=O)C32)cc1 (stereo not drawn)", "resultValue": 0.357}
{"compound": "C=CC[C@@H]1C=C[C@H](ON=Cc2ccc(C(=O)N3[C@H](c4ccc(C)cc4)[C@@H](C)CC[C@H]3C(=O)OC)cc2)[C@@H](CO)O1", "resultValue": -0.0994}
{"compound": "CCOC(=O)[C@H](Cc1ccccc1)NC(=O)CCC1CC(OC(=O)NCCc2ccc(F)cc2)CC2(CCCC(COC(=O)NCC(c3ccccc3)c3ccccc3)O2)O1 (stereo partly drawn)", "resultValue": 0.0053}
{"compound": "O=C(CS)NCCCCCNC(=O)[C@H]1C[C@H]2C(=O)N3CCC[C@H]3C(=O)N2[C@H]1c1cccc(OCCO)c1", "resultValue": 0.0274}
